Test system: Paecilomyces spp.
Format: cell-based
Conditions: 48 h
Description: The peptide synthesis was performed by Laboratoire Innodal (Lévis, QC, Canada). Fourteen peptides were synthesized by standard solid-phase peptide synthesis (SPPS) on an automated peptide synthesizer. Solubility of peptides was first tested on saline water with 0.85% NaCl. […] The antibacterial activity was tested against two indicator bacteria including Escherichia coli and Listeria ivanovii (Table 1). […] The antifungal activity was evaluated against four filamentous molds and four yeasts (Table 1). […]
Ends that are not written are not given here.
test_readout: MIC (µM)
Answers are plain numbers, in µM.

Check out these entries, answers already filled in.
FRLLGNVIVVV :: 625
LAHKYH [LAHKYH] :: 1250
GHLDDLPGALSALSDLHAHKL :: 1300

Okay, next one:
Challenge: Given the entry NALAHKYH , report its measured MIC.
Response given: 200
